# experiment-summary: Inhibition of Saccharomyces cerevisiae alpha-glucosidase using PNP glycoside as substrate preincubated for 30 mins followed by substrate addition measured after 60 secs by spectrophotometric method
pIC50: −log10 of the molar value.
measured-metric: pIC50

a. COc1cc2oc(-c3ccc(Cl)cc3)nc2c2oc3ccccc3c(=O)c12
b. COc1cc2oc(-c3ccccc3)nc2c2oc3ccccc3c(=O)c12
c. Nc1c(O)cc(O)c2c(=O)c3ccccc3oc12
Rank items: key pIC50, increasing. Lab note: record answer as labels in requested order.
c, b, a
(c: 3.90, b: 4.71, a: 5.00)

1. O=c1c2ccccc2oc2c1c(O)cc1oc(-c3ccc(Cl)cc3)nc12
2. Cc1ccc(-c2nc3c(cc(O)c4c(=O)c5ccccc5oc43)o2)cc1
3. Cc1nc2c(cc(O)c3c(=O)c4ccccc4oc32)o1
4. O=c1c2ccccc2oc2c([N+](=O)[O-])c(O)cc(O)c12
# desc sort on pIC50 across 4 compounds Kindly provide the labels arranged according to the requested ordering.
1, 2, 3, 4
(1: 5.06, 2: 4.72, 3: 4.19, 4: 3.54)

a. O=c1c2ccccc2oc2c1c(O)cc1oc(-c3ccc(O)cc3)nc12
b. O=c1c2ccccc2oc2c1c(O)cc1oc(-c3ccc([N+](=O)[O-])cc3)nc12
Consider a and b . Which of these has its pIC50 at a higher number? Write down the label of the entry you select.
a

* * *

# experiment-summary: Inhibition of Saccharomyces cerevisiae alpha-glucosidase using PNP glycoside as substrate preincubated for 30 mins followed by substrate addition measured after 60 secs by spectrophotometric method
pIC50: −log10 of the molar value.
measured-metric: pIC50

I. O=c1c2ccccc2oc2c1c(O)cc1oc(-c3cccc(F)c3)nc12
II. O=c1c2ccccc2oc2c1c(O)cc1oc(-c3ccccc3)nc12
From the recorded data, which exceeds the other in pIC50: I or II ? Identify your pick by its label.
I
(I: 5.05, II: 4.74)

a. COc1ccc(-c2nc3c(cc(OC)c4c(=O)c5ccccc5oc43)o2)cc1
b. O=c1c2ccccc2oc2cc(O)cc(O)c12
Which value of pIC50 is numerically greater: that of a or that of b ? Returns: label corresponding to the selected item.
a

I. O=c1c2ccccc2oc2c1c(O)cc1oc(-c3ccc(C(F)(F)F)cc3)nc12
II. OC[C@H]1NC[C@H](O)[C@@H](O)[C@@H]1O
Between I and II , whose recorded pIC50 is greater? Response format: the label of the selected entry.
I
(I: 4.57, II: 4.22)

* * *

# experiment-summary: Non-competitive inhibition of Saccharomyces cerevisiae alpha-glucosidase using varying levels of PNP glycoside as substrate preincubated for 30 mins followed by substrate addition measured after 60 secs by Lineweaver-Burk plot analysis
measured-metric: Ki (µM)

| smiles-entry | Ki, µM |
| --- | --- |
| COc1ccc(-c2nc3c(cc(OC)c4c(=O)c5ccccc5oc43)o2)cc1 | 7.4 |
| O=c1c2ccccc2oc2c1c(O)cc1oc(-c3c(F)cc(F)cc3F)nc12 | 6.8 |
| COc1ccc(-c2nc3c(cc(O)c4c(=O)c5ccccc5oc43)o2)cc1 | 5.3 |

* * *

# experiment-summary: Inhibition of Saccharomyces cerevisiae alpha-glucosidase using PNP glycoside as substrate preincubated for 30 mins followed by substrate addition measured after 60 secs by spectrophotometric method
measured-metric: IC50 (µM)

Worked cases, answers included:
| smiles-entry | IC50, µM |
| --- | --- |
| COc1ccc(-c2nc3c(cc(O)c4c(=O)c5ccccc5oc43)o2)cc1 | 7.1 |
| Nc1ccc(-c2nc3c(cc(O)c4c(=O)c5ccccc5oc43)o2)cc1 | 8.3 |

P. O=c1c2ccccc2oc2c1c(O)cc1oc(C3CCCCC3)nc12
Q. O=c1c2ccccc2oc2c1c(O)cc1oc(-c3ccc(Br)cc3)nc12
R. O=c1c2ccccc2oc2c1c(O)cc1oc(-c3ccc(F)cc3)nc12
Arrange the 3 molecules by rising IC50, starting with the smallest. List the labels according to the requested ordering.
R, Q, P
